experimental_target: T1, Csa3Sso WT (Saccharolobus solfataricus P2, UniProt Q97Y88 1-237)
T1 sequence: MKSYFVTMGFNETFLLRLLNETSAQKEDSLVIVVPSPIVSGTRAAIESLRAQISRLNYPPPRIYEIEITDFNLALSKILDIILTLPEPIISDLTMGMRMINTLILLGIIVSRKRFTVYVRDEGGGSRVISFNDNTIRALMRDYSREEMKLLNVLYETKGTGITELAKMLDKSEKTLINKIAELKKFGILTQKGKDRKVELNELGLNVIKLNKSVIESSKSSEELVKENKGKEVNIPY
measurement_notes: MST; apparent Kd; MST buffer not given in the material; Cy5 EMSA: 50 nM probe, 0.5-25 uM protein, 5% acrylamide TBE, 4 C; agarose EMSA: 2% TBE, room temperature; crystals: 20 mM
measurement_context: protein: recombinant; tags: N-terminal His6; chain copies: 2; cyclic; no ends
measure_name: pKd
Scale: pKd equals -log10([C]), with [C] in mol/L.

In: I am curious: what pKd value has been reported for AAAA (ssRNA, cyclic, 3'-5' linked tetra-adenylate (CHEBI:142457)) [cA4] ?
Out: 5.24
